# System: Escherichia coli TOP10;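 note: peptides expressed intracellularly from a pBAD plasmid library in pooled LB shake-flask culture, induced with 0.3% L-arabinose, DNA abundance read by NGS, three biological replicates, DESeq2 with apeglm shrinkage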
# METHOD DESCRIPTION: shrunken log2 fold change of peptide-encoding DNA abundance (4.5 h post-induction vs induction); higher = less antimicrobial activity (less host growth inhibition)
# CONDITION SET: time post-induction: 4.5 h; library: site-saturation at positions 5, 18, 19, 20
Outcome label depends on shrunken log2 fold change relative to 0.09: at/above gives Yes, below gives No.

Below are worked cases with known answers.
RRIRGRPPRLPRPRPRPADSPRP : Yes
RRIRPRPPRLPRPRPRPPWWPRP : Yes
RRIRCRPPRLPRPRPRPWDKPRP : No
RRIRQRPPRLPRPRPRPMQDPRP : No
RRIRERPPRLPRPRPRPFCTPRP : No
RRIRKRPPRLPRPRPRPCEGPRP : No
RRIRHRPPRLPRPRPRPRTCPRP : No
RRIRFRPPRLPRPRPRPGRTPRP : Yes
RRIRMRPPRLPRPRPRPMSCPRP : No
RRIRLRPPRLPRPRPRPRAQPRP : Yes

Query block: Hello, I need to know if `RRIRMRPPRLPRPRPRPSNDPRP` has measured shrunken log2 fold change not below 0.09. Thanks!
Result block: Yes

Query block: API: above_or_equal(metric=shrunken log2 fold change, cutoff=0.09) for item `RRIRERPPRLPRPRPRPEGCPRP`
Result block: No

Query block: Evaluate `RRIRPRPPRLPRPRPRPWRMPRP` : shrunken log2 fold change at minimum 0.09?
Result block: Yes

Query block: Hi, just wondering whether `RRIRLRPPRLPRPRPRPVLQPRP` shows shrunken log2 fold change of 0.09 or higher.
Result block: Yes
